Tested on: L1210 leukemia ip in BDF1 mice, survival T/C
PROCEDURE_SUMMARY: NCI In Vivo Anticancer Drug Screen. Data for tumor model L1210 Leukemia (intraperitoneal) in B6D2F1 (BDF1) mice
CONDITION_CONTEXT: endpoint: mean survival time; dose: 400.0 mg/kg/injection; schedule: Q01DX001 (ip); vehicle: saline; higher = longer survival
Inconclusive results and toxic doses are left out.
# Lookup of reported T/C keyed by entry

Known T/C results, listed for orientation:
COMPOUND	VALUE_REPORTED
Cn1c(N)c(N=Nc2ccc(S(N)(=O)=O)cc2)c(=O)n(C)c1=O	96 % of control
CCCC(=O)CCNC	111 % of control
Clc1cnc[nH]1	102 % of control
COc1cc(CCC(=O)O)cc(/C=N/NC(N)=O)c1O	95 % of control
CCOC(=O)CN(C)C(=O)OCC	101 % of control
COC(=O)c1c([N+](=O)[O-])ncn1C1OC(COC(C)=O)C(OC(C)=O)C1OC(C)=O (stereo unspecified)	94 % of control

Task: Value lookup for T/C; key = O=C1OCCC12CCCCC21OCCO1 (stereo unspecified)
Output: 98 % of control

Task: Consider the compound shown here: Cc1ccc(S(=O)(=O)NCCC(=O)O)cc1 What is its recorded T/C?
Output: 98 % of control

Task: Give the measured T/C of CC1=[N+](CCS(C)(=O)=O)C(C)CCC1 (stereo unspecified) .
Output: 106 % of control

Task: Give its T/C value. Item: Nc1n[nH]c(N)n1
Output: 106 % of control

Task: Looking for the measured T/C of N#CC(c1cnc2ccccc2n1)c1cccc2ccccc12 (stereo unspecified) , can you help?
Output: 97 % of control

Task: I am curious: what T/C value has been reported for Cn1[nH]c(=S)c(=O)[nH]c1=O ?
Output: 101 % of control

Task: Which T/C value is on record for S=P(c1ccccc1)(c1cccc2ccccc12)c1cccc2ccccc12 ?
Output: 93 % of control

* * *

Test system: L1210 leukemia ip in BDF1 mice, survival T/C
PROCEDURE_SUMMARY: NCI In Vivo Anticancer Drug Screen. Data for tumor model L1210 Leukemia (intraperitoneal) in B6D2F1 (BDF1) mice
CONDITION_CONTEXT: endpoint: mean survival time; dose: 50.0 mg/kg/injection; schedule: Q04DX002 (ip); vehicle: saline; higher = longer survival
Experimental: The antitumor activity of compounds was measured in mice bearing transplantable tumors. Survival or tumor size were measured and the results are expressed as the measurement made in the treated group (T) divided by the measurement made in the vehicle treated control group (C). The tumor model used in this assay is L1210 Leukemia (intraperitoneal) in B6D2F1 (BDF1) mice
Toxic doses and inconclusive results are not listed.
// values below are reported T/C

Worked examples follow.
COMPOUND	ASSAY_TARGET	T/C
ClCCN(CCCl)c1ccc(Nc2nc(Nc3ccc(N(CCCl)CCCl)cc3)c3ccccc3n2)cc1	L1210 leukemia ip in BDF1 mice, survival T/C	113 % of control
C[S+](C)C12CC3CC(CC(C3)C1)C2	L1210 leukemia ip in BDF1 mice, survival T/C	102 % of control
CCN(CC)CCCC(C)Nc1ccc(NC(C)CCCN(CC)CC)c2c1C(=O)c1ccccc1C2=O (centres undefined)	L1210 leukemia ip in BDF1 mice, survival T/C	103 % of control

// next item, T/C requested
Task: Could you tell me which T/C is on file for C[N+](C)(C)CCOC(=O)c1ccc(CBr)cc1 ?
Output: 90 % of control
